# target: Acetylcholinesterase (Homo sapiens, UniProt P22303)
# Sequence (P22303 whole entry): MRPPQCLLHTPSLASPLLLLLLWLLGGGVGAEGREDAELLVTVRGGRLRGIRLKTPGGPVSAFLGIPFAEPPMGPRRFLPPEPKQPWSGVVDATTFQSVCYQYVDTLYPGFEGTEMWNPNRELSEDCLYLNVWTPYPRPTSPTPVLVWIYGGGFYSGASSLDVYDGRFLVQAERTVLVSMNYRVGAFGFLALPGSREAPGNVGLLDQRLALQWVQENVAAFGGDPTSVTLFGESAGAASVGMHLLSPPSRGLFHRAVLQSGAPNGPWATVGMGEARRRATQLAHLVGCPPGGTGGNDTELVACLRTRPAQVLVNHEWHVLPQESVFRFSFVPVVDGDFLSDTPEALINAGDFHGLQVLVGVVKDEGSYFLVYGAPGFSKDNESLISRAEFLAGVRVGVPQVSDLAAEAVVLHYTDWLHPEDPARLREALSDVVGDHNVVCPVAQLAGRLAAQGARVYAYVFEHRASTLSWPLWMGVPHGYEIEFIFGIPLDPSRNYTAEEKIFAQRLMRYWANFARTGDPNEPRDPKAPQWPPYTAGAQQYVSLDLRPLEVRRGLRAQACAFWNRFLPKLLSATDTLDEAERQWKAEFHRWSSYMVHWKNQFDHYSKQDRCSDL
# protocol-details: Potency index, ratio of IC50 for 6-cholorotacrine to compound IC50 for Inhibition of human recombinant AChE expressed in HEK293 cells
# Assay type: cell-based
recorded-metric: Ratio IC50

Sure, the documented Ratio IC50 for FC12CC3CC(NCCCCCNc4c5c(nc6cc(Cl)ccc46)CCCC5)(CC(C1)c1ccccc13)C2 is 6 to 44

The compound identified as FC12CC3CC(NCCCCNc4c5c(nc6cc(Cl)ccc46)CCCC5)(CC(C1)c1ccccc13)C2 registered its Ratio IC50 at 6 to 44

GET /value?item= NC12CC3CC(F)(CC(C1)c1cc(NC(=O)CCCNc4c5c(nc6cc(Cl)ccc46)CCCC5)ccc13)C2 (stereo unspecified) &field=Ratio IC50 returns 6 to 44

Ratio IC50 recorded for this compound, O=C(CCCCNc1c2c(nc3cc(Cl)ccc13)CCCC2)NC12CC3CC(F)(CC(C1)c1ccccc13)C2 , is 6 to 44

What the record says about O=C(CCCNc1c2c(nc3cc(Cl)ccc13)CCCC2)NC12CC3CC(F)(CC(C1)c1ccccc13)C2 : Ratio IC50 is 6 to 44

Noted for NC12CC3CC(F)(CC(C1)c1cc(NC(=O)CCCCNc4c5c(nc6cc(Cl)ccc46)CCCC5)ccc13)C2 (stereo unspecified) : its Ratio IC50 reads 44

---

# target: Glutamate NMDA receptor
# protocol-details: Antagonist activity at NMDA receptor in rat CGN cells assessed as […] in intracellular calcium level incubated for 30 mins in presence of Fura-2AM followed by NMDA/glycine stimulation by fluorescence spectrometer analysis
Record form. Attribute: pIC50. Fill in for each entry.
Lab note — pIC50 values are minus log10 of concentrations in M.

Tested system Glutamate NMDA receptor; pIC50 recorded for NC12CC3CC(F)(CC(C1)c1cc(NC(=O)CCCCNc4c5c(nc6cc(Cl)ccc46)CCCC5)ccc13)C2 (configuration not stated) was 5.47

Field pIC50 (Glutamate NMDA receptor), entry NC12CC3CC(F)(CC(C1)c1cc(NC(=O)CCCNc4c5c(nc6cc(Cl)ccc46)CCCC5)ccc13)C2 (configuration not stated) : 5.92

Simply: FC12CC3CC(NCCCCCNc4c5c(nc6cc(Cl)ccc46)CCCC5)(CC(C1)c1ccccc13)C2 , Glutamate NMDA receptor, pIC50 = 6.05

Summary: O=C(CCCNc1c2c(nc3cc(Cl)ccc13)CCCC2)NC12CC3CC(F)(CC(C1)c1ccccc13)C2 , Glutamate NMDA receptor, pIC50 = 5.15

Readout pIC50 for FC12CC3CC(NCCCCNc4c5c(nc6cc(Cl)ccc46)CCCC5)(CC(C1)c1ccccc13)C2 , test system Glutamate NMDA receptor, was 5.48

Glutamate NMDA receptor assay, compound O=C(CCCCNc1c2c(nc3cc(Cl)ccc13)CCCC2)NC12CC3CC(F)(CC(C1)c1ccccc13)C2 , recorded pIC50 = 5.08

Field pIC50 (system: Glutamate NMDA receptor) for entry NC12CC3CC(F)(CC(C1)c1ccccc13)C2 = 5.72

---

So I've got a bunch of molecules here, and I need their Papp values.
# protocol-details: in vitro
# conditions: PAMPA
# Description: Permeability of the compound measured after compound dilution in PBS/EtOH buffer (70:30) by PAMPA-BBB assay
Write it as a number; the unit ×10⁻⁶ cm/s goes unstated.

Value of Papp reported for the molecule FC12CC3CC(NCCCCCNc4c5c(nc6cc(Cl)ccc46)CCCC5)(CC(C1)c1ccccc13)C2 is 6.5

Lab note: measured Papp of NC12CC3CC(F)(CC(C1)c1cc(NC(=O)CCCNc4c5c(nc6cc(Cl)ccc46)CCCC5)ccc13)C2 (configuration not stated) was 2.7

// sample FC12CC3CC(NCCCCNc4c5c(nc6cc(Cl)ccc46)CCCC5)(CC(C1)c1ccccc13)C2 , its Papp was 6.3

For record O=C(CCCNc1c2c(nc3cc(Cl)ccc13)CCCC2)NC12CC3CC(F)(CC(C1)c1ccccc13)C2 the listed Papp is 9.8

So for Nc1c2c(nc3cc(Cl)ccc13)CCCC2 , the logged Papp turned out to be 20

The molecule listed as NC12CC3CC(F)(CC(C1)c1cc(NC(=O)CCCCNc4c5c(nc6cc(Cl)ccc46)CCCC5)ccc13)C2 (configuration not stated) shows Papp equal to 3.1

// Papp value for O=C(CCCCNc1c2c(nc3cc(Cl)ccc13)CCCC2)NC12CC3CC(F)(CC(C1)c1ccccc13)C2 : 9

---

Would you kindly list inhibition for each of these molecules?
# target: Microtubule-associated protein tau (Homo sapiens) (UniProt P10636)
# Sequence (P10636 whole entry): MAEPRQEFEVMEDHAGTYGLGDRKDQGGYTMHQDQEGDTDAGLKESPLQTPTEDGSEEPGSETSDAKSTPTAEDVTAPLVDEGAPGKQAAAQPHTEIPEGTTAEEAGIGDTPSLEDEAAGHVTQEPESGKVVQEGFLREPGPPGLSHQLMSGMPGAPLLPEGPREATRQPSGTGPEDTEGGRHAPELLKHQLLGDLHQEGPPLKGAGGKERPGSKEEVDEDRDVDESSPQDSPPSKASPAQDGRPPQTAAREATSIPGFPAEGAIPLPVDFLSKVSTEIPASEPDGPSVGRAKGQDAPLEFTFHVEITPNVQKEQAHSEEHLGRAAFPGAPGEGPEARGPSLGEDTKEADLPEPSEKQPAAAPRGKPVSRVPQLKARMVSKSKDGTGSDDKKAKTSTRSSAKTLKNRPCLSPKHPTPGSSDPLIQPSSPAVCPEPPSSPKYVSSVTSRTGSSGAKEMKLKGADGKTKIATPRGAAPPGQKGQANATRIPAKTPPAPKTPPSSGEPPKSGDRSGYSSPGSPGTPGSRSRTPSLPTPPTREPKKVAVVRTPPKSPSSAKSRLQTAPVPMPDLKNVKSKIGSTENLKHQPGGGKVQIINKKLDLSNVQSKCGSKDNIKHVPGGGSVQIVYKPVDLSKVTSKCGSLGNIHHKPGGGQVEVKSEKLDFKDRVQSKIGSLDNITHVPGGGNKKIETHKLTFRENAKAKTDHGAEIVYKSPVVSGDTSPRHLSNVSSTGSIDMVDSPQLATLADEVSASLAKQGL
# protocol-details: Inhibition of tau aggregation (unknown origin) expressed in Escherichia coli BL21 (DE3) at 10 uM by Thioflavin S steady state fluorescence assay relative to control
Report as a plain number; the unit % is understood.

For record FC12CC3CC(NCCCCNc4c5c(nc6cc(Cl)ccc46)CCCC5)(CC(C1)c1ccccc13)C2 the listed inhibition is 22

inhibition reported for this molecule NC12CC3CC(F)(CC(C1)c1cc(NC(=O)CCCCNc4c5c(nc6cc(Cl)ccc46)CCCC5)ccc13)C2 (configuration not stated) : 22.9

Quick note, inhibition for FC12CC3CC(NCCCCCNc4c5c(nc6cc(Cl)ccc46)CCCC5)(CC(C1)c1ccccc13)C2 landed at 20.7

Query NC12CC3CC(F)(CC(C1)c1cc(NC(=O)CCCNc4c5c(nc6cc(Cl)ccc46)CCCC5)ccc13)C2 (configuration not stated) yields inhibition of 6.9

// O=C(CCCCNc1c2c(nc3cc(Cl)ccc13)CCCC2)NC12CC3CC(F)(CC(C1)c1ccccc13)C2 : inhibition value = 12.6

Notebook: O=C(CCCNc1c2c(nc3cc(Cl)ccc13)CCCC2)NC12CC3CC(F)(CC(C1)c1ccccc13)C2 , inhibition read as 10.2

---

# target: Acetylcholinesterase (Homo sapiens, UniProt P22303)
# protocol-details: Inhibition of human recombinant AChE expressed in HEK293 cells using acetylthiocholine iodide as substrate preincubated for 20 mins followed by substrate addition by spectrophotometry analysis
pIC50: −log10 of the molar value.
Please enter 1.0 where pIC50 is greater than or equal to 9, and 0.0 where it is lower.

Would you say NC12CC3CC(F)(CC(C1)c1cc(NC(=O)CCCNc4c5c(nc6cc(Cl)ccc46)CCCC5)ccc13)C2 (stereo unspecified) shows pIC50 at minimum 9?
1.0

Decide: is the reported value of pIC50 for FC12CC3CC(NCCCCNc4c5c(nc6cc(Cl)ccc46)CCCC5)(CC(C1)c1ccccc13)C2 equal to or greater than 9?
0.0

Dear colleague, could you confirm whether NC12CC3CC(F)(CC(C1)c1cc(NC(=O)CCCCNc4c5c(nc6cc(Cl)ccc46)CCCC5)ccc13)C2 (stereo unspecified) has pIC50 at or above 9?
0.0

---

So I've got a bunch of compounds here, and I need their inhibition values.
# target: Amyloid-beta precursor protein (Homo sapiens) (UniProt P05067)
# Sequence (P05067 whole entry): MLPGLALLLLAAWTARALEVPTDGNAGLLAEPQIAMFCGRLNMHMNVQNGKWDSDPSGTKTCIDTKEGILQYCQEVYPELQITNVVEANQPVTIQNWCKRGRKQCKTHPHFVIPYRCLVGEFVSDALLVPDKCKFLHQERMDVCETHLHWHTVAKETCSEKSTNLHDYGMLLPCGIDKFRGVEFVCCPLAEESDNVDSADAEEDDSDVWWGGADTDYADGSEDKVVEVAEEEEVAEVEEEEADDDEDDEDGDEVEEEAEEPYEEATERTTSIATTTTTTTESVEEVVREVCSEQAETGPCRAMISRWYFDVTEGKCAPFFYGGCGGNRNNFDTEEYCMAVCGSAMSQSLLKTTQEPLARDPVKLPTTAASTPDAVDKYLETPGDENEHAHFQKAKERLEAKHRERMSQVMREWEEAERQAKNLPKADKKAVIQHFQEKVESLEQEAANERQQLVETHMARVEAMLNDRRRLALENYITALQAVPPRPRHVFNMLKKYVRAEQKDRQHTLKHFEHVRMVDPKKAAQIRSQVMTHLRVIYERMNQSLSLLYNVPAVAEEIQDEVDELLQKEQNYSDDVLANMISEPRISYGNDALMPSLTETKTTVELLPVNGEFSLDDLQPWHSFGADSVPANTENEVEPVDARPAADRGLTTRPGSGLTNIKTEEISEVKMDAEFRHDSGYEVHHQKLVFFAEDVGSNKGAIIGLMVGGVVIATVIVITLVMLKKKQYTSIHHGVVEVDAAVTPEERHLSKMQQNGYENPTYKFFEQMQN
# protocol-details: Inhibition of human recombinant amyloid beta (1 to 42) aggregation expressed in Escherichia coli BL21 (DE3) at 10 uM by Thioflavin S steady state fluorescence assay relative to control
Write it as a number; the unit % goes unstated.

compound FC12CC3CC(NCCCCCNc4c5c(nc6cc(Cl)ccc46)CCCC5)(CC(C1)c1ccccc13)C2 , inhibition observed: 12.3

Documented inhibition of FC12CC3CC(NCCCCNc4c5c(nc6cc(Cl)ccc46)CCCC5)(CC(C1)c1ccccc13)C2 : 8.4

# inhibition of O=C(CCCCNc1c2c(nc3cc(Cl)ccc13)CCCC2)NC12CC3CC(F)(CC(C1)c1ccccc13)C2 = 9

---

# target: Glutamate NMDA receptor; GRIN1/GRIN2B (Homo sapiens, UniProt Q05586+Q13224)
# Sequence (Q13224 whole entry, other chains not shown): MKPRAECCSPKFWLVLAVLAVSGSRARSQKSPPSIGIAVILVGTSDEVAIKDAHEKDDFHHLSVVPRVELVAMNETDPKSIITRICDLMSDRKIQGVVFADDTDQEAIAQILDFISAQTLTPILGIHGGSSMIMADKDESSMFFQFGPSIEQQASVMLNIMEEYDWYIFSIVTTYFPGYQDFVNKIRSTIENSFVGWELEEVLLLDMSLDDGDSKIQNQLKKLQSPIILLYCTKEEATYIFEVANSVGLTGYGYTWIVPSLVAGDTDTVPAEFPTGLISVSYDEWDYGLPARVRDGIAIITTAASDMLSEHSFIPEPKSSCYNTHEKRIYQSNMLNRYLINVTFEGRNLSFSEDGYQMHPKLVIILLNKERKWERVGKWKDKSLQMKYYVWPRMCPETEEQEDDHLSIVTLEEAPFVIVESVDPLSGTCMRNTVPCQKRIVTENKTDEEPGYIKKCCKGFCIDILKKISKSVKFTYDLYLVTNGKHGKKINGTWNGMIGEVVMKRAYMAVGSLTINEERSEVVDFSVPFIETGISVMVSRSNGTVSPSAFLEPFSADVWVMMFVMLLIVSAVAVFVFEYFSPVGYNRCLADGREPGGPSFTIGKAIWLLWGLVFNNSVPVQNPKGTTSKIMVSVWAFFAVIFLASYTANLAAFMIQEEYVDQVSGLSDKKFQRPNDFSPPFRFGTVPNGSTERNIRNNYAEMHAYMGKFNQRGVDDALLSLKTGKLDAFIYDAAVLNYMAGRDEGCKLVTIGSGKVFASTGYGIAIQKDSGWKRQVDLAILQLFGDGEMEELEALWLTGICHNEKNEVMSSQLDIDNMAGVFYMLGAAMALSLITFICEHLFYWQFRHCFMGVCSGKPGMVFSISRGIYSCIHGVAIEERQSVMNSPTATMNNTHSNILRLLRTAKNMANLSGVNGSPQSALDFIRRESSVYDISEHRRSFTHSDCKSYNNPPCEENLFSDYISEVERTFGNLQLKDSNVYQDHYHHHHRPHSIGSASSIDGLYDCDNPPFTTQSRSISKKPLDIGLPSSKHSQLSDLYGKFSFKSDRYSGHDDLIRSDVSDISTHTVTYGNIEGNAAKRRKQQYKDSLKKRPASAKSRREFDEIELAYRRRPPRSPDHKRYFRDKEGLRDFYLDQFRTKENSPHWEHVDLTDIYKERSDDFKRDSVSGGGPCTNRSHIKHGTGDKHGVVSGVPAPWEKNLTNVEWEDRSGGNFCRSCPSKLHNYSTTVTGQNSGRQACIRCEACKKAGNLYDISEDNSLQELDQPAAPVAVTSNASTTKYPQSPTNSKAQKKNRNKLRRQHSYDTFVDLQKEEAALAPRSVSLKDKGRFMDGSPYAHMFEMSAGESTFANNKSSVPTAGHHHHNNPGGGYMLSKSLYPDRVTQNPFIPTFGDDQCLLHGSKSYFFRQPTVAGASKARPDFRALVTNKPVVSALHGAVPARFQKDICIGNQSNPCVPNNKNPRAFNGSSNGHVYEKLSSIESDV
# protocol-details: Inhibition of recombinant GluN1/GluN2B receptor (unknown origin) expressed in HEK293 cells by patch-clamp method
recorded-metric: pKi
Scale note: pKi = -log10(concentration in M).

The measured pKi associated with COc1ccc2nc3c(c(NCCCCCNC(=S)NC45CC6CC(CC(C6)C4)C5)c2c1)CCCC3 reads 5.74

---

Task for the reader: assign each of the following compounds its reported IC50.
# target: Acetylcholinesterase (Homo sapiens, UniProt P22303)
# protocol-details: Inhibition of human recombinant AChE expressed in HEK293 cells using acetylthiocholine iodide as substrate preincubated for 20 mins followed by substrate addition by spectrophotometry analysis
Hi! Could you send only the number? It should be in nM, unit omitted.

Noted for O=C(CCCCNc1c2c(nc3cc(Cl)ccc13)CCCC2)NC12CC3CC(F)(CC(C1)c1ccccc13)C2 : its IC50 reads 1.3

Lab note: measured IC50 of O=C(CCCNc1c2c(nc3cc(Cl)ccc13)CCCC2)NC12CC3CC(F)(CC(C1)c1ccccc13)C2 was 1.4

So for FC12CC3CC(NCCCCCNc4c5c(nc6cc(Cl)ccc46)CCCC5)(CC(C1)c1ccccc13)C2 , the logged IC50 turned out to be 1.4

Values compiled from ChEMBL document CHEMBL4304786.
